# Assay explanation: in vivo
# Test parameters: Balb/c, mouse, po, 10 mg/kg
Endpoint label: log10 of AUC(0-inf) (log10 of the value in ng·h/mL)
In our notation, the value equals log10 of AUC(0-inf) in ng·h/mL.

Past entries and their recorded results:
C[C@H](c1ccc(C(F)(F)F)cc1C(F)(F)F)n1cc(NC(=O)c2cc(-c3ccccn3)no2)cn1 [Compound 76]; 4.66
C[C@H](c1ccc(C(F)(F)F)cc1C(F)(F)F)n1cc(NC(=O)c2nnc(-c3ccccn3)s2)cn1 [Compound 123]; 4.79
CC(c1ccc(C(F)(F)F)cc1C(F)(F)F)n1cc(NC(=O)c2cc(-c3ccccn3)on2)cn1 (single isomer, unassigned) [“Enantiomer A” of Example S5]; 4.51
O=C(Nc1cnn(Cc2ccc(C(F)(F)F)cc2C(F)(F)F)c1)c1cc(-c2ccccn2)on1 [Compound 11]; 4.01
C[C@H](c1ccc(C(F)(F)F)cc1C(F)(F)F)n1cc(NC(=O)c2cc(-c3cnccn3)on2)cn1 [Compound 131]; 5.03

I have 2 compounds here; please give me log10 of AUC(0-inf) for each one.
1. CC(c1ccc(C(F)(F)F)cc1C(F)(F)F)n1cc(NC(=O)c2cc(-c3ccco3)on2)cn1 (single isomer, unassigned) [“Enantiomer A” of Example S6]
2. O=C(Nc1cnn(Cc2ccc(C(F)(F)F)cc2C(F)(F)F)c1)c1cc(-c2cnccn2)on1 [Compound 114]

stdout:
1: 2.80; 2: 4.08
